Recorded values, source patent US20230183237A1.

- MEASURED_TARGET: hM5 (Homo sapiens)
- Construct: expressed in transfected cells
- Sequence (P08912 whole entry): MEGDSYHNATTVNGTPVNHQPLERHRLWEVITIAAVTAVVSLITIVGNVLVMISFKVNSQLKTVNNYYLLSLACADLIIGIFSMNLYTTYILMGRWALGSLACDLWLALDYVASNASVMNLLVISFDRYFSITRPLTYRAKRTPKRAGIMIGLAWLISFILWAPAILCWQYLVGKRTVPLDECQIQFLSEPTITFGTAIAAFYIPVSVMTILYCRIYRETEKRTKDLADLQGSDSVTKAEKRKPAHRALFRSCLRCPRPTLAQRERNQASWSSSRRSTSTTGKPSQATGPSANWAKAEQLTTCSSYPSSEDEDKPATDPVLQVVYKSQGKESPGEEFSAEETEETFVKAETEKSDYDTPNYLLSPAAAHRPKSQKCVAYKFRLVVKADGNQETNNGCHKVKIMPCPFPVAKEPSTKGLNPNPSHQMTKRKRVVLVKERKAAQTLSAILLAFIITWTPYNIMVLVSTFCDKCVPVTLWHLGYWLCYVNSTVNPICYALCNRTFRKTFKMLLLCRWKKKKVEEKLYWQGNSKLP
- ASSAY_EXPLANATION: Calcium mobilization concentration-response (IC50 vs EC80 acetylcholine), CHO hM5
- Assay type: cell-based
- RUN_PARAMETERS: CELL LINE hM5; calcium mobilization, EC80 acetylcholine addition; read-out: IC50
pIC50: −log10 of the molar value.
ENDPOINT_NAME: pIC50

- O=S(=O)(c1ccc2c(c1)CCO2)N1CCC(c2ccc3ncnn3c2)CC1: < 5.00
- Cc1nc2cc(C)c(C3CCN(S(=O)(=O)c4ccc5c(c4)CCO5)CC3)cn2n1: < 5.00
- Cc1c(S(=O)(=O)N2CCC(c3cn4ncnc4cc3-c3ccn(C)n3)CC2)cnn1C: < 5.00
- Cc1cc2c(cc1C1CCN(S(=O)(=O)c3cnn(C)c3Cl)CC1)OCO2: 7.85
- Cc1c(C2=CCN(S(=O)(=O)c3ccc4c(c3)CCO4)CC2)cnc2ncnn12: < 5.00
- CCc1cc2ncnn2cc1C1CCN(S(=O)(=O)c2c(Cl)nc3sccn23)CC1: 6.97
- Cc1nc(C)c(S(=O)(=O)N2CCC(c3nn4ncnc4cc3C)CC2)s1: < 5.00
- COc1ccc(S(=O)(=O)N2CCC(c3nn4ccnc4cc3C)CC2)c(C)c1: < 5.00
- Cc1cc2nccn2nc1C1CCN(S(=O)(=O)c2cn(C)nc2C)CC1: 5.25
- Cc1cc2c(cc1S(=O)(=O)N1CCC(c3nn4ncnc4cc3C)CC1)OCO2: < 5.00
- Cc1cn2ncnc2cc1C1=CCN(S(=O)(=O)c2cnn(C)c2C)CC1: 5.85
- Cc1cc2ncnn2cc1[C@@H]1CCN(S(=O)(=O)c2cnn3c2CCCC3)C[C@H]1O (racemic): 6.98
- O=S(=O)(c1cnc2n1CCC2)N1CCC(c2cn3ncnc3cc2F)CC1: < 5.00
- Cc1sc(C(N)=O)nc1C1=CCN(S(=O)(=O)c2cnn(C)c2C)CC1: < 5.00
- Cn1cnc2cc(C3CCN(S(=O)(=O)c4ccc5ncsc5c4)CC3)ccc21: < 5.00
- COc1cc2ncnn2cc1C1CCN(S(=O)(=O)c2ccc3c(c2)C(C)CO3)CC1 (centres unmarked): 5.51
- O=S(=O)(c1cnn2c1CCC2)N1CCC(c2ccncc2)CC1: < 5.00
